Data provenance: patent US12612368B2

molecular target: NAMPT (Homo sapiens); construct: purchased Abcam ab221819; assay: NAMPT Activity Assay (Abcam #ab221819); format: biochemical; conditions: purified NAMPT, two-step reaction, OD450 nm; percent inhibition vs no drug; compound concentration not stated
Sequence (P43490 whole entry): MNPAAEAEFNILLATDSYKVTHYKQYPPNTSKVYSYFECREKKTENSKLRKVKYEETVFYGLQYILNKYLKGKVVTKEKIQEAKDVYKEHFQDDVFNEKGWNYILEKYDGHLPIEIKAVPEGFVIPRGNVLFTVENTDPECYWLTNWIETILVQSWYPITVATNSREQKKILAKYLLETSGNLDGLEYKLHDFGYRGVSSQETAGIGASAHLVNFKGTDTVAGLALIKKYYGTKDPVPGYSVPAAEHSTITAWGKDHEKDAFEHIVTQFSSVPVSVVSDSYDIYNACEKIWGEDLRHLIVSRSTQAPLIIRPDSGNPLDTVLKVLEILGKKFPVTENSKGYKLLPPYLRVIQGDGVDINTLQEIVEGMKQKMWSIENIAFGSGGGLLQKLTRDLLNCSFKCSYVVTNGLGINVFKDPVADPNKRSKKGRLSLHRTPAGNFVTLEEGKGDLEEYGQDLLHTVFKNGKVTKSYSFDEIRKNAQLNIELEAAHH
measurement_type: NAMPT Inhibition Code

CCOC(=O)N(C)c1ccc(-c2ccc(C(=O)NCc3cccnc3)nc2)cc1
A (A = <33% inhibition)
CCC(=O)N(C)c1ccc(-c2ccc(C(=O)NCc3ccc(C)nc3C)cn2)cc1
A (A = <33% inhibition)
